Source: ChEMBL document CHEMBL2417539

target.of.assay: Phosphatidylinositol 4,5-bisphosphate 3-kinase catalytic subunit alpha isoform (Homo sapiens)
Sequence (P42336 whole entry, canonical isoform): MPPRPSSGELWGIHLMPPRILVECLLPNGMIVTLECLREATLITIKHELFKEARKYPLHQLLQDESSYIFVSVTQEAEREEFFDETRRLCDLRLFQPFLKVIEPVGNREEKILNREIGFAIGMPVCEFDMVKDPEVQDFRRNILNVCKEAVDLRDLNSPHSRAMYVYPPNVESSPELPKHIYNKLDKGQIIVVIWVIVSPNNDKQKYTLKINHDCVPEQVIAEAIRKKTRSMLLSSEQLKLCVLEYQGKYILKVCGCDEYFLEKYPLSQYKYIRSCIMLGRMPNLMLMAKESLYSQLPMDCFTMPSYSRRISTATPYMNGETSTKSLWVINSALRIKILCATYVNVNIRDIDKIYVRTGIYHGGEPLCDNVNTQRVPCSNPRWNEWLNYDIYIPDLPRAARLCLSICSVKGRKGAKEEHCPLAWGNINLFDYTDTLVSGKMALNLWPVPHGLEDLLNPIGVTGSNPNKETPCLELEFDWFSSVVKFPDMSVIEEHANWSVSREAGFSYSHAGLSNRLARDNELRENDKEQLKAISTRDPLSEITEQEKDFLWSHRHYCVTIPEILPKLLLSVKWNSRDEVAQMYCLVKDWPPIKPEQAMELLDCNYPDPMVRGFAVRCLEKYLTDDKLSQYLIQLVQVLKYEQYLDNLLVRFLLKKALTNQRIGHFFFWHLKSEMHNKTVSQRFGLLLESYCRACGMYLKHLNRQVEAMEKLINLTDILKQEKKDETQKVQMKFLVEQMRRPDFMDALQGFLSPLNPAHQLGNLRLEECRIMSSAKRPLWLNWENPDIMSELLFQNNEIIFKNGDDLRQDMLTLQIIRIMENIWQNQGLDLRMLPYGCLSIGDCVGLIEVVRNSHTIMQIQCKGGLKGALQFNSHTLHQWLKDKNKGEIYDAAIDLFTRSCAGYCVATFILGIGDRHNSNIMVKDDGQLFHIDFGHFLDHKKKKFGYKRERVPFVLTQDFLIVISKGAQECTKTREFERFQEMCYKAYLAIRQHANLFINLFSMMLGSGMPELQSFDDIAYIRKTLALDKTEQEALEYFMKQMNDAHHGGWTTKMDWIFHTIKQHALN
procedure.summary: Inhibition of PI-3K alpha (unknown origin)
recorded.endpoint: IC50 (nM)
One number for each entry, in nM.

Look up IC50 for this molecule: CCN1CCN(CC(=O)Nc2ccc(-c3cccc4c(=O)cc(N5CCOCC5)oc34)c3sc4ccccc4c23)CC1
4

====

procedure.summary: Fraction unbound in human Plasma
Type: ADME, cell-free
For each entry below, report its fraction unbound value.
Answers are plain numbers.

Report fraction unbound for each item below.
1. O=c1cc(N2CCOCC2)oc2c(-c3cccc4c3sc3ccccc34)cccc12
2. CC(=O)N1CCN(CCOc2ccc(-c3cccc4c(=O)cc(N5CCOCC5)oc34)c3sc4ccccc4c23)CC1
3. O=C(CN1CCN(CCO)CC1)Nc1ccc(-c2cccc3c(=O)cc(N4CCOCC4)oc23)c2sc3ccccc3c12
4. CN1CCN(CC(=O)Nc2ccc(-c3cccc4c(=O)cc(N5CCOCC5)oc34)c3sc4ccccc4c23)CC1

[0.0004, 0.0049, 0.098, 0.036]

Look up fraction unbound for this molecule: CCN1CCN(CC(=O)Nc2ccc(-c3cccc4c(=O)cc(N5CCOCC5)oc34)c3sc4ccccc4c23)CC1
0.036
